TGT: K-Ras G12C (Homo sapiens (Human), UniProt P01116, G12C)
MEASUREMENT_PROTOCOL: Western blot assay for in cell alkylation of K-Ras G12C (HCC1171 cells)
STUDY_CONDITIONS: 18 hours at 37° C., 7 point dose response
Sequence (P01116 other isoform, or with tags, fused parts or gaps G12C): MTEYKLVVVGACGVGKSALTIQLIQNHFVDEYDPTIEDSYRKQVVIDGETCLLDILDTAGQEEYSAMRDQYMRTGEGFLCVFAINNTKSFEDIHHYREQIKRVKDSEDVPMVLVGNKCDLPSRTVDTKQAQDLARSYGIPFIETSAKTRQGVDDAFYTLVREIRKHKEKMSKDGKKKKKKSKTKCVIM
This section presents molecules with their documented EC50 values.

C=CC(=O)N1CCN(c2ncnc3cc(-c4nc(N)cc5cccc(F)c45)c(Cl)cc23)CC1 [Example 48]	140 nM

Field EC50 (entry C=CC(=O)N1CCN(c2ncnc3cc(-c4nc(N)cc5cc(OC)ccc45)c(Cl)cc23)CC1 [Example 6] ) reads 10000 nM

Field EC50 (entry C=CC(=O)N1CCN(c2ncnc3cc(-c4nc(N)ccc4C(F)(F)F)c(Cl)cc23)[C@@H](C)C1 [Example 54] ) reads 140 nM

Field EC50 (entry C=CC(=O)N1CCN(c2nc(OC[C@@H]3[C@@H]4C[C@@H]4CN3C)nc3cc(-c4nc(N)ccc4C(F)(F)F)c(Cl)cc23)CC1 [Example 78b] ) reads 40 nM

Field EC50 (entry C=CC(=O)N1CCN(c2ncnc3cc(-c4nc(N)ccc4C(F)(F)F)c(Cl)cc23)CC1C(F)(F)F (stereo not shown) [Example 25] ) reads 4200 nM

Field EC50 (entry C=CC(=O)N1CCN(c2ncnc3cc(-c4nc(N)cc5c(Cl)cccc45)c(Cl)cc23)CC1 [Example 5] ) reads 2800 nM

Field EC50 (entry C=CC(=O)N1CCN(c2nc(OCC3(N(C)C)CC3)nc3cc(-c4nc(N)ccc4C(F)(F)F)c(Cl)cc23)CC1 [Example 88] ) reads 240 nM

Field EC50 (entry C=CC(=O)N1CCN(c2ncnc3cc(-c4nc(N)cc5ccc(F)cc45)c(Cl)cc23)CC1 [Example 49] ) reads 250 nM

Field EC50 (entry C=CC(=O)N1CCN(c2ncnc3cc(-c4nc(N)ccc4C(F)(F)F)c(C4CC4)cc23)CC1 [Example 29] ) reads 830 nM

====

TGT: K-Ras G12C (Homo sapiens (Human), UniProt P01116, G12C)
MEASUREMENT_PROTOCOL: Western blot assay for in cell alkylation of K-Ras G12C (HCC1171 cells)
STUDY_CONDITIONS: 18 hours at 37° C., 7 point dose response
Reported EC50 maps to class as: group 1 (below 100 nM), group 2 (100 nM to below 2000 nM), group 3 (2000 nM or more)

# example entries with known answers
C=C(F)C(=O)N1CC(C)N(c2nc(OC[C@@H]3C[C@@H](F)CN3C)nc3cc(-c4nc(N)cc(C)c4C(F)(F)F)c(Cl)cc23)C[C@H]1CC#N (some centres unmarked) [Example 58]	group 1
C=CC(=O)N1CCN(c2nc(C)nc3cc(-c4nc(N)cc(C)c4C(F)(F)F)c(Cl)cc23)CC1 [Example 32]	group 2
C=CC(=O)N1CCN(c2ncnc3cc(-c4nc(N)ccc4C(F)F)c(Cl)cc23)CC1 [Example 41]	group 3
C=CC(=O)N1CCN(c2nc(OC[C@@H]3CCCN3C)nc3cc(-c4nc(N)cc(C)c4C(F)(F)F)c(Cl)cc23)[C@@H](C)C1 [Example 61]	group 1
C=CC(=O)N1CCN(c2ncnc3cc(-c4nc(N)ccc4C(F)(F)F)c(S(C)(=O)=O)cc23)CC1 [Example 28]	group 3

Task: Form: Item = C=CC(=O)N1CCN(c2nc(OCC3(C)CC(F)(F)CN3C)nc3cc(-c4nc(N)ccc4C(F)(F)F)c(Cl)cc23)CC1 (centres unmarked) [Example 73] ; Class = ?
Result: group 2

Task: Form: Item = C=CC(=O)N1CCN(c2ncnc3cc(-c4nc(N)cc(C)c4C)c(Cl)cc23)CC1 [Example 13] ; Class = ?
Result: group 2

Task: Form: Item = C=CC(=O)N1CCN(c2nc(OC[C@@H]3[C@@H](F)CCN3C)nc3cc(-c4nc(N)ccc4C(F)(F)F)c(Cl)cc23)CC1 [Example 77] ; Class = ?
Result: group 1

Task: Form: Item = C=CC(=O)N1CCN(c2nc(NCCN(C)C)nc3cc(-c4nc(N)ccc4C(F)(F)F)c(Cl)cc23)CC1 [Example 45] ; Class = ?
Result: group 3

Task: Form: Item = C=CC(=O)N1CCN(c2nc(OCCN3CC(CF)C3)nc3cc(-c4nc(N)ccc4C(F)(F)F)c(Cl)cc23)CC1 [Example 76] ; Class = ?
Result: group 2

Task: Form: Item = C=CC(=O)N1CCN(c2ncnc3cc(-c4nc(N)cc(C)c4F)c(Cl)cc23)CC1 [Example 11] ; Class = ?
Result: group 3

Task: Form: Item = C=CC(=O)N1CCN(c2ncnc3cc(-c4nc(N)ccc4C4CC4)c(OC)cc23)CC1 [Example 47] ; Class = ?
Result: group 3

Task: Form: Item = C=CC(=O)N1CCN(c2nc(OC[C@@H]3CCCN3C3COC3)nc3cc(-c4nc(N)ccc4C(F)(F)F)c(Cl)cc23)CC1 [Example 87] ; Class = ?
Result: group 2

====

MEASUREMENT_PROTOCOL: Whole blood stability assay
Type: in vitro ADME
STUDY_CONDITIONS: fresh whole blood, drug final concentration 1 μM, 37° C., 180 minutes
MEASURED_PARAMETER: half-life at 1 μM (h)
Express the result in h but write the number alone.

C=CC(=O)N1CCN(c2nc(OC[C@@H]3C[C@@H](OCC)CN3C)nc3cc(-c4nc(N)ccc4C(F)(F)F)c(Cl)cc23)CC1	1.52

Field half-life at 1 μM (entry Cc1cc(N)nc(-c2cc3nc(OC[C@@H]4CCCN4C)nc(N4CCN(C(=O)/C=C/C(F)F)C[C@@H]4C)c3cc2Cl)c1C(F)(F)F ) reads 0.617

Field half-life at 1 μM (entry C=CC(=O)N1CCN(c2nc(OC[C@@H]3CCCN3C)nc3cc(-c4nc(N)ccc4C(F)(F)F)c(Cl)cc23)CC1 ) reads 1.02

Field half-life at 1 μM (entry C=CC(=O)N1CCN(c2ncnc3c(F)c(-c4nc(N)cc(C)c4C(F)(F)F)c(Cl)cc23)[C@@H](C)C1 ) reads 2.67

Field half-life at 1 μM (entry C=CC(=O)N1CCN(c2nc(OC[C@@H]3CCCN3C)nc3cc(-c4nc(N)cc(C)c4C(F)(F)F)c(Cl)cc23)[C@@H](C)C1 ) reads 2.67

Field half-life at 1 μM (entry C=CC(=O)N1CCN(c2nc(OC[C@@H]3C[C@@H](OC(F)F)CN3C)nc3cc(-c4nc(N)ccc4C(F)(F)F)c(Cl)cc23)CC1 ) reads 3

====

TGT: K-Ras G12C (Homo sapiens (Human), UniProt P01116, G12C)
MEASUREMENT_PROTOCOL: K-Ras G12C, SOS1, Raf RBD HTRF assay for inhibition of GTP exchange
STUDY_CONDITIONS: 18 hours incubation with K-Ras G12C at room temperature, SOS1-mediated GTP exchange
Protocol: K-Ras G12C, SOS1, Raf RBD Homogeneous Time Resolved Fluorescence (HTRF) Assay for Inhibition of GTP Exchange After 18 hours at room temperature, the SOS1 GTP exchange factor (1.67 nM during exchange, 1.25 nM final) was added to initiate nucleotide exchange to GTP (200 μM during exchange, 150 µM final). […] After 2 hours, the ratio of 665 nm to 615 nm emission with 320 nm excitation was measured on an Envision plate reader (Perkin Elmer). […]
Sequence (P01116 other isoform, or with tags, fused parts or gaps G12C): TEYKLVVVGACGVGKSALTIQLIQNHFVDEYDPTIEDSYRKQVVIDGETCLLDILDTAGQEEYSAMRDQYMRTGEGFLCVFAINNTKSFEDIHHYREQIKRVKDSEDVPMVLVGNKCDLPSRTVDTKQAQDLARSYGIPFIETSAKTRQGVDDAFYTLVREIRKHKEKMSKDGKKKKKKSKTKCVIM
This section presents molecules with their documented pIC50 values.
By convention, pIC50 is the negative base-10 log of a molar concentration.

C=CC(=O)N1CCN(c2ncnc3cc(-c4nc(N)cc5cccc(F)c45)c(Cl)cc23)CC1 [Example 48]	7.49

Alright, here's another molecule for you.
Short answer on K-Ras G12C (Homo sapiens (Human), UniProt P01116, G12C) for C=CC(=O)N1CCN(c2ncnc3cc(-c4nc(N)ccc4C(F)(F)F)c(S(C)(=O)=O)cc23)CC1 [Example 28] , pIC50: 6.27

====

TGT: K-Ras G12C (Homo sapiens (Human), UniProt P01116, G12C)
MEASUREMENT_PROTOCOL: Western blot assay for in cell alkylation of K-Ras G12C (HCC1171 cells)
STUDY_CONDITIONS: 18 hours at 37° C., 7 point dose response
MEASURED_PARAMETER: EC50
Quick note: number first, unit second.

See these solved cases before continuing.
C=CC(=O)N1CCN(c2ncnc3cc(-c4nc(N)cc5cccnc45)c(Cl)cc23)CC1	21 µM
C=CC(=O)N1CCC(C#N)(c2ncnc3cc(-c4nc(N)cc(C)c4C(F)(F)F)c(Cl)cc23)CC1	2.9 µM
C=CC(=O)N1CCN(c2nc(OC[C@@H]3C[C@@H](F)CN3C)nc3c(F)c(-c4nc(N)cc(C)c4C(F)(F)F)c(Cl)cc23)[C@@H](C)C1	0.001 µM
C=CC(=O)N1CCN(c2ncnc3cc(-c4nc(N)ccc4CC(F)(F)F)c(Cl)cc23)CC1	2.8 µM
C=CC(=O)N1CCN(c2nc(OC[C@@H]3C[C@@H](F)[C@H](C)N3C)nc3cc(-c4nc(N)ccc4C(F)(F)F)c(Cl)cc23)CC1	0.055 µM

Short answer on K-Ras G12C (Homo sapiens (Human), UniProt P01116, G12C) for C=C(F)C(=O)N1CCN(c2ncnc3cc(-c4nc(N)cc(C)c4C(F)(F)F)c(Cl)cc23)CC1 , EC50: 0.14 µM

Short answer on K-Ras G12C (Homo sapiens (Human), UniProt P01116, G12C) for C=CC(=O)N1CCN(c2nc(NC)nc3cc(-c4nc(N)cc(C)c4C(F)(F)F)c(Cl)cc23)CC1 , EC50: 0.2 µM

Short answer on K-Ras G12C (Homo sapiens (Human), UniProt P01116, G12C) for Cc1cc(N)nc(-c2cc3nc(OC[C@@H]4CCCN4C)nc(N4CCN(C(=O)/C=C/C(F)F)C[C@@H]4C)c3cc2Cl)c1C(F)(F)F , EC50: 0.0076 µM

Short answer on K-Ras G12C (Homo sapiens (Human), UniProt P01116, G12C) for C=CC(=O)N1CCN(c2nc(OC[C@@H]3C[C@@H](F)CN3CCOC)nc3cc(-c4nc(N)ccc4C(F)(F)F)c(Cl)cc23)CC1 , EC50: 0.029 µM

Short answer on K-Ras G12C (Homo sapiens (Human), UniProt P01116, G12C) for C=CC(=O)N1CCN(c2ncnc3cc(-c4nc(NCC#N)cc5ccccc45)c(Cl)cc23)CC1 , EC50: 10 µM

Short answer on K-Ras G12C (Homo sapiens (Human), UniProt P01116, G12C) for C=C(F)C(=O)N1CCN(c2nc(OC[C@@H]3CCCN3C)nc3cc(-c4nc(N)cc(C)c4C(F)(F)F)c(Cl)cc23)CC1CC#N (stereo partly shown) , EC50: 0.026 µM

Short answer on K-Ras G12C (Homo sapiens (Human), UniProt P01116, G12C) for C=CC(=O)N1CCN(c2nc(OC(C)(C)[C@@H]3CCCN3C)nc3cc(-c4nc(N)ccc4C(F)(F)F)c(Cl)cc23)CC1 , EC50: 0.11 µM

Short answer on K-Ras G12C (Homo sapiens (Human), UniProt P01116, G12C) for C=CC(=O)N1CCN(c2ncnc3cc(-c4nc(N)cc(CC)c4C(F)(F)F)c(Cl)cc23)CC1 , EC50: 0.086 µM

Short answer on K-Ras G12C (Homo sapiens (Human), UniProt P01116, G12C) for C=CC(=O)N1CCN(c2ncnc3cc(-c4nc(N)ccc4C(F)(F)F)c(C(C)(F)F)cc23)CC1 , EC50: 2.8 µM

Short answer on K-Ras G12C (Homo sapiens (Human), UniProt P01116, G12C) for C=CC(=O)N1CCN(c2ncnc3cc(-c4nc(N)cc(C(F)(F)F)c4C)c(Cl)cc23)CC1 , EC50: 2.1 µM

Short answer on K-Ras G12C (Homo sapiens (Human), UniProt P01116, G12C) for Cc1cc(N)nc(-c2cc3ncnc(N4CCN(C(=O)C5CO5)C(C#N)C4)c3cc2Cl)c1C(F)(F)F (stereo not shown) , EC50: 6.3 µM

Short answer on K-Ras G12C (Homo sapiens (Human), UniProt P01116, G12C) for C=C(F)C(=O)N1CCN(c2nc(OC[C@@H]3CCCN3C)nc3cc(-c4nc(N)cc(C)c4C(F)(F)F)c(Cl)cc23)CC1CF (stereo partly shown) , EC50: 0.23 µM

Short answer on K-Ras G12C (Homo sapiens (Human), UniProt P01116, G12C) for C=CC(=O)N1CCN(c2nc(OC[C@@H]3C[C@@H](OCC)CN3C)nc3cc(-c4nc(N)ccc4C(F)(F)F)c(Cl)cc23)CC1 , EC50: 0.018 µM

Short answer on K-Ras G12C (Homo sapiens (Human), UniProt P01116, G12C) for C=CC(=O)N1CCN(c2nc(C(F)(F)F)nc3cc(-c4nc(N)cc(C)c4C(F)(F)F)c(Cl)cc23)CC1 , EC50: 7.8 µM
